Biological target: Thymidine kinase (Human herpesvirus 1 (strain SC16) (HHV-1) (Human herpes simplex virus1))
Sequence (P06479 whole entry): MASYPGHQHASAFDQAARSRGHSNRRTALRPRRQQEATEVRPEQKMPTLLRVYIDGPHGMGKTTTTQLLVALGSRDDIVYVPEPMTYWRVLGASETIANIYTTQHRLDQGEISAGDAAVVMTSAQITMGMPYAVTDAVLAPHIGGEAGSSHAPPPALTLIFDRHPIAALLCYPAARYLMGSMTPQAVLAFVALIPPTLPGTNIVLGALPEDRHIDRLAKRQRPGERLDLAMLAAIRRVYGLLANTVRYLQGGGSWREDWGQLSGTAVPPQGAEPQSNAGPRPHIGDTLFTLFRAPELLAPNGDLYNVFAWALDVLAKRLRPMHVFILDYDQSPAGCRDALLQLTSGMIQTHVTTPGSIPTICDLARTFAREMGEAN
Assay: Inhibitory concentration against herpes simplex virus type 1 thymidine kinase
reportedMetric: pIC50
pIC50 field: float, defined as -log10 of concentration (mol/L).

Record excerpt, results attached:
>>> df
                                   compound  measurednumber
0  Cl.Cl.Oc1nc(Nc2ccccc2)nc2c1ncn2CCCCN1CCCCC1            5.80
1              Nc1nc2c(ncn2CCCCO)c(=O)[nH]1            4.22
2  COC1CCCN(CCCCn2cnc3c(O)nc(Nc4ccccc4)nc32)C1 (stereo not given)            5.60

# returns recorded pIC50 (system: Thymidine kinase (Human herpesvirus 1 (strain SC16) (HHV-1) (Human herpes simplex virus1))) for CCN(CC)CCCCn1cnc2c(O)nc(Nc3ccccc3)nc21
5.35

Next compound up: OCCCn1cnc2c(O)nc(Nc3ccccc3)nc21
5.70

----------
Target: Thymidine kinase (Human herpesvirus 2, UniProt Q6L709)
Sequence (Q6L709 whole entry): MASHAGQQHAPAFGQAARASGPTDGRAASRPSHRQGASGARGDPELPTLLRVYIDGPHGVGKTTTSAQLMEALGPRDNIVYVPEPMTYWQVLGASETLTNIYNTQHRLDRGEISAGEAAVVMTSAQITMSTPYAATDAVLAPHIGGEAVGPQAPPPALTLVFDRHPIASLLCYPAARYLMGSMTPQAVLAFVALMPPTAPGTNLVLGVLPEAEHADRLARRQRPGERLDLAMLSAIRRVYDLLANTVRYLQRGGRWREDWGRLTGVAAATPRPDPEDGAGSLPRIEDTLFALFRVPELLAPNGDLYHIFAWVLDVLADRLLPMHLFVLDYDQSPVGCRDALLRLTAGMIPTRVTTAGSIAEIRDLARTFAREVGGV
# key: entry, value: pIC50
pIC50 field: float, defined as -log10 of concentration (mol/L).

Record excerpt, results attached:
                                   compound  reportedmetric  measurednumber
0      CN(C)CCCCn1cnc2c(O)nc(Nc3ccccc3)nc21           pIC50            6.21
1              Nc1nc2c(ncn2CCCCO)c(=O)[nH]1           pIC50            3.80
2  OCCC1CCCCN1CCCCn1cnc2c(O)nc(Nc3ccccc3)nc21 (stereo unspecified)           pIC50            7.19
3  COC1CCCN(CCCCn2cnc3c(O)nc(Nc4ccccc4)nc32)C1 (stereo unspecified)           pIC50            6.82
4  C=CCN(CC=C)CCCCn1cnc2c(O)nc(Nc3ccccc3)nc21           pIC50            6.38
5    CCN(CC)CCCCn1cnc2c(O)nc(Nc3ccccc3)nc21           pIC50            6.64
6        O=c1[nH]c(Oc2ccccc2)nc2c1ncn2CCCCO           pIC50            5.05
7           OCCCn1cnc2c(O)nc(Nc3ccccc3)nc21           pIC50            5.82

Could you tell me which pIC50 is on file for Cl.Cl.Oc1nc(Nc2ccccc2)nc2c1ncn2CCCCN1CCCC2CCCCC21 (stereo unspecified) ?
7.89

Next compound up: Oc1nc(Nc2ccccc2)nc2c1ncn2CCCCN1CCC(O)CC1
6.15

----------
Molecular target: Thymidine kinase (Human herpesvirus 1 (strain SC16) (HHV-1) (Human herpes simplex virus1))
Sequence (P06479 whole entry): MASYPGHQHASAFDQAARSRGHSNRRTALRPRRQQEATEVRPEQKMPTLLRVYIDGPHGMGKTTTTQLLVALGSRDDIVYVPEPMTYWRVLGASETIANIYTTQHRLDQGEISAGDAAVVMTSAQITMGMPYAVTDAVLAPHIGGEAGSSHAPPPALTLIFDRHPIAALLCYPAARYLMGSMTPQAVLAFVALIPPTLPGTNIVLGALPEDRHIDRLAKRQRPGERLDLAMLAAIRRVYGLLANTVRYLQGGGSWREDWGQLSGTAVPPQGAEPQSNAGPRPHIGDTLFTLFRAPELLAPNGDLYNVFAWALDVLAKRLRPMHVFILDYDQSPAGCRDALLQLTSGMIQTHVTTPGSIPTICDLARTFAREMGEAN
Experiment: Binding affinity for herpes simplex virus type 1 thymidine kinase
reportedMetric: pKi
pKi field: float, defined as -log10 of concentration (mol/L).

Could you tell me which pKi is on file for Cl.Cl.Oc1nc(Nc2ccccc2)nc2c1ncn2CCCCN1CCCC2CCCCC21 (stereo unspecified) ?
7.52

----------
System: Mus musculus
Assay: Effect on ocular HSV-2 reactivation in mice following intraperitoneal dosage at 200 mg/kg; expressed as HSV-2 positive cultures/15 mice
Format: functional, Eye
Activity under 8 gets 1, anything at or over 8 gets -1.

Reference set, count: 6
                                   compound  group
0           OCCCn1cnc2c(O)nc(Nc3ccccc3)nc21     -1
1  Cl.Cl.Oc1nc(Nc2ccccc2)nc2c1ncn2CCCCN1CCCCC1     -1
2        O=c1[nH]c(Nc2ccccc2)nc2c1ncn2CCCCO      1
3  Cl.Cl.Oc1nc(Nc2ccccc2)nc2c1ncn2CCCCN1CCCC2CCCCC21 (stereo not drawn)     -1
4                           O=C(O)P(=O)(O)O      1
5      O=C(O)CCCn1cnc2c(O)nc(Nc3ccccc3)nc21     -1

Okay, now this compound:
For this compound, is Activity lower than 8? Nc1nc2c(ncn2COCCO)c(=O)[nH]1
-1

----------
Target: Thymidine kinase (Human herpesvirus 2, UniProt Q6L709)
IC50 under 100 nM gets yes (1), anything at or over 100 nM gets no (0).

>>> df
                                   compound                               assaysystem    group
0  Oc1nc(Nc2ccccc2)nc2c1ncn2CCCCN1CCCCC1c1ccccc1 (stereo unspecified)  Thymidine kinase (Human herpesvirus 2, UniProt Q6L709)  yes (1)
1     COCCCCn1cnc2c(=O)[nH]c(Nc3ccccc3)nc21  Thymidine kinase (Human herpesvirus 2, UniProt Q6L709)   no (0)
2  CC1CN(CCCCn2cnc3c(O)nc(Nc4ccccc4)nc32)CC(C)N1 (stereo unspecified)  Thymidine kinase (Human herpesvirus 2, UniProt Q6L709)   no (0)
3  Oc1nc(Nc2ccccc2)nc2c1ncn2CCCCN1CCCC1CN1CCCCC1 (stereo unspecified)  Thymidine kinase (Human herpesvirus 2, UniProt Q6L709)   no (0)
4  OCCN(CCO)CCCCn1cnc2c(O)nc(Nc3ccccc3)nc21  Thymidine kinase (Human herpesvirus 2, UniProt Q6L709)   no (0)

For this compound, is IC50 lower than 100 nM? OCCCCn1cnc2c(O)nc(Sc3ccccc3)nc21
no (0)

----------
Target: Thymidine kinase (Human herpesvirus 2)
Sequence (Q6L709 whole entry): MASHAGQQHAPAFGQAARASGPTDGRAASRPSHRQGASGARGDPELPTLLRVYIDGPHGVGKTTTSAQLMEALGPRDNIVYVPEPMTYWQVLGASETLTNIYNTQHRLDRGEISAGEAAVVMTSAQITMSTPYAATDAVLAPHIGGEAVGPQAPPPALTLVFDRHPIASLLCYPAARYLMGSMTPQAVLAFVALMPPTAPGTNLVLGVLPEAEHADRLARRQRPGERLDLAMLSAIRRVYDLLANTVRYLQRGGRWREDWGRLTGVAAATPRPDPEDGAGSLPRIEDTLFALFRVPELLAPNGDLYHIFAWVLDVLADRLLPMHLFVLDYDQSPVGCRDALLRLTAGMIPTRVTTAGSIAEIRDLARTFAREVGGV
Experiment: Binding affinity for herpes simplex virus type 2 thymidine kinase
Parameters: species or system Human alphaherpesvirus 2
reportedMetric: pKi
pKi field: float, defined as -log10 of concentration (mol/L).

Could you tell me which pKi is on file for Cl.Cl.Oc1nc(Nc2ccccc2)nc2c1ncn2CCCCN1CCCC2CCCCC21 (stereo unspecified) ?
8.30

FYI, the data here is from ChEMBL document CHEMBL1139534.
